FYI, the data here is from PubChem BioAssay (NCI).

Tested on: SF-295 CNS
Assay: NCI tumour cell line growth inhibition, 48 h
Below: a set of entries, each annotated with reported TGI.

Some entries whose results are on file:
{"columns": ["Compound", "Test value"],
 "data": [
  ["C/C(CC(=O)Nc1ccc(Cl)cc1)=N\\NC(N)=S", "> 100 µM"],
  ["Nc1[nH]nc2nc(-c3cccs3)cc(C(F)(F)F)c12", "> 25 µM"],
  ["O=C(O)c1nc(-c2ccccc2)[nH]c1C(=O)O", "30.9 µM"]
]}

# input Dear colleague, please send me the reported TGI for `CC(=O)c1c(C(F)(F)F)n([O-])c2cc(Cl)c(Cl)cc2[n+]1=O` when you can.
# output 2.27 µM

# input Dear colleague, please send me the reported TGI for `C1CN(SSN2CCOCC2)CCO1` when you can.
# output > 100 µM

# input Dear colleague, please send me the reported TGI for `COC(=O)c1c(OC(C)=O)ccc2c1c1c(n2C)C(=O)c2ccccc2C1=O` when you can.
# output 67.8 µM

# input Dear colleague, please send me the reported TGI for COc1cc(C2C(Cl)C(=O)N2NC(=O)c2ccc(N)cc2)ccc1O (centres undefined) when you can.
# output > 100 µM

# input Dear colleague, please send me the reported TGI for `COc1ccc(OC)c(NC(=O)CCC/C(CC(=O)c2ccc(O)c(OC)c2)=N\Nc2ccc([N+](=O)[O-])cc2)c1` when you can.
# output > 100 µM

# input Dear colleague, please send me the reported TGI for `COc1c(O)cc(O)c2c(=O)cc(-c3ccccc3)oc12` when you can.
# output > 100 µM

# input Dear colleague, please send me the reported TGI for CCOc1cc(C2CC(c3ccc(NS(=O)(=O)c4cc([N+](=O)[O-])ccc4C)cc3)=NN2c2ccc([N+](=O)[O-])cc2[N+](=O)[O-])ccc1O (centres undefined) when you can.
# output 41.1 µM

# input Dear colleague, please send me the reported TGI for `CCOC(=O)C(=Cc1cccnc1C)C(=O)OCC` when you can.
# output 24.2 µM

# input Dear colleague, please send me the reported TGI for `CCOC(=O)c1cc2c(C(=O)c3ccc([N+](=O)[O-])cc3)c(C(C)=O)ccc2[nH]1` when you can.
# output > 100 µM

# input Dear colleague, please send me the reported TGI for `CCOC(=O)NC(=O)c1cn(CCCCCCOC(=O)NCCCCCCNC(=O)OCCCCCCn2cc(C(=O)NC(=O)OCC)c(=O)[nH]c2=O)c(=O)[nH]c1=O` when you can.
# output > 100 µM

# input Dear colleague, please send me the reported TGI for COC1OC2COC1(OC)C1OC(C)(C)OC21 (centres undefined) when you can.
# output > 100 µM

# input Dear colleague, please send me the reported TGI for `CC1(c2ccc[n+](Cc3ccccc3)c2)OCCO1` when you can.
# output > 100 µM

# input Dear colleague, please send me the reported TGI for `COc1ccc(-c2c(C#N)c(S)n(NS(=O)(=O)c3ccc(C)cc3)c(=O)c2C#N)cc1` when you can.
# output > 100 µM

# input Dear colleague, please send me the reported TGI for `CC1(C)[C@@H](OC(N)=O)[C@H]2O[C@H]2[C@]2(CO)[C@H]3CC[C@]4(C)[C@@H](c5ccc(=O)oc5)[C@@H](Cl)C[C@]4(O)C3=CC[C@@H]12` when you can.
# output 0.0264 µM

# input Dear colleague, please send me the reported TGI for `NC(=O)c1c(NC(=O)c2ccc3c(c2)OCO3)sc2c1CCC(=O)C2` when you can.
# output 6.71 µM

# input Dear colleague, please send me the reported TGI for `O=C(Nc1ccccc1)N(CCCCN(Cc1ccccc1)C(=O)Nc1ccccc1)Cc1ccccc1` when you can.
# output > 100 µM

# input Dear colleague, please send me the reported TGI for `O=C(Nc1nc2ccccc2s1)c1cc([N+](=O)[O-])ccc1Cl` when you can.
# output > 100 µM

# input Dear colleague, please send me the reported TGI for `CC(=O)Nc1ccc(OC2=CCN(C)CC2)cc1` when you can.
# output > 100 µM

# input Dear colleague, please send me the reported TGI for `Clc1nc(Cl)c2ncn(C/C=C/COc3cccc(OC/C=C/Cn4cnc5c(Cl)nc(Cl)nc54)c3)c2n1` when you can.
# output > 100 µM
